Origin of values: paper PMC12231361

# Assay system: PCP site on NMDA receptor
# Construct: gene Grin1; PCP (channel pore) site of the NMDA receptor complex
# Assay notes: PCP-site binding assay
# Protocol conditions: read-out: PCP site / IC50/Ki
pIC50: −log10 of the molar value.

Compound	pIC50
CNC1(c2ccccc2Cl)CCCC1=O (stereo not shown) [Ketamir-2]	~4.00
